# ASSAY SYSTEM: T1, human TREM2 (human, UniProt Q9NZC2 19-174, limits assumed)
# T1 construct: also called triggering receptor expressed on myeloid cells 2
# T1 sequence: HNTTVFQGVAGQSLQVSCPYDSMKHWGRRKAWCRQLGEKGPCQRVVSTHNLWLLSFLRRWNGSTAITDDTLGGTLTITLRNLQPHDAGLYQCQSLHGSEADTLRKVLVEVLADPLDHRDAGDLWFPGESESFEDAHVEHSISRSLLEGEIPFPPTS
# ASSAY DETAILS: 2nd screen 100 nM
PROPERTY LABEL: Binding Signal (fold over 6E7 Parental antibody) (fold)
Kindly provide the numeric value in fold only, without the unit symbol.

Here's what some known entries look like.
- BINDER: "V80 (antibody, V domains shown) VH: EVQLVQSGAEVKKPGESLKISCKGSGYSFTSYWIAWVRQMPGKGLEWMGIIYPGDSDTRYSPSFQGQVTISADKSISTAYLQWSSLKASDTAMYFCARQRNFYYDSSDYFDYWGQGTLVTVSS VL: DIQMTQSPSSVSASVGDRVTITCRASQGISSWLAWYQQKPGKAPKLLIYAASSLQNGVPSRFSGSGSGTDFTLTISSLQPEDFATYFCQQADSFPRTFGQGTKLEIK"
  REPORTED VALUE: 0.5
- BINDER: "V93 (antibody, V domains shown) VH: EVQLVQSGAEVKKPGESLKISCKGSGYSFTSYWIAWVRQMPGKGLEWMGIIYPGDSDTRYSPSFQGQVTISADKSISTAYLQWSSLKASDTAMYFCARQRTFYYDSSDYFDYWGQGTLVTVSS VL: DIQMTQSPSSVSASVGDRVTITCRASQGISGWLAWYQQKPGKAPKLLIYAASSLQNGVPSRFSGSGSGTDFTLTISSLQPEDFATYFCQQADSFPRTFGQGTKLEIK"
  REPORTED VALUE: 1.05
- BINDER: "V34 (antibody, V domains shown) VH: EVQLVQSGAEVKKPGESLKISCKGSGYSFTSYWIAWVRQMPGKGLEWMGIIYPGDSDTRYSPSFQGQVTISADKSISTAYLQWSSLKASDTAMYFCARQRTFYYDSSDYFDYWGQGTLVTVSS VL: DIQMTQSPSSVSASVGDRVTITCRASQGISSWLAWYQQKPGKAPKLLIYAASSLQDGVPSRFSGSGSGTDFTLTISSLQPEDFATYFCQQADSFPRTFGQGTKLEIK"
  REPORTED VALUE: 1.02
- BINDER: "V32 (antibody, V domains shown) VH: EVQLVQSGAEVKKPGESLKISCKGSGYSFTSYWIAWVRQMPGKGLEWMGIIYPGDSDTRYSNSFQGQVTISADKSISTAYLQWSSLKASDTAMYFCARQRTFYYDSSDYFDYWGQGTLVTVSS VL: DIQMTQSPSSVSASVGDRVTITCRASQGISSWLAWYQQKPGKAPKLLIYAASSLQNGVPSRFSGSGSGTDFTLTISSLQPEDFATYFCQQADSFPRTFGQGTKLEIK"
  REPORTED VALUE: 0.89

Now consider the entry below.
Lab note: measured Binding Signal (fold over 6E7 Parental antibody) of V83 (antibody, V domains shown) VH: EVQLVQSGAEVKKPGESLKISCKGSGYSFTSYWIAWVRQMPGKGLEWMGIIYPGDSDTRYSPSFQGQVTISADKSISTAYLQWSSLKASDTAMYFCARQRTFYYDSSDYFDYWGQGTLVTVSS VL: DIQMTQSPSSVSASVGDRVTITCRASQGISSWLAWYQQKPGKAPKLLIYAASSLQNGVPSRFSGSGSGTDFTLTISSLQPEDFATYFCQQAVSFPRTFGQGTKLEIK was 0.29

Measured values drawn from patent US20250282866A1 for this set.
